Assay: in vitro
Conditions: dog, hepatocytes
quantity-name: hepatocyte CLint (µL/min/1e6 cells)
Please give a number only; it is taken to be in µL/min/1e6 cells.

// lookup hepatocyte CLint for CCc1nc2ncc(C)cn2c1C(=O)NCc1ccc(N2CCN(S(=O)(=O)C(F)(F)F)C=N2)c(F)c1 [Compound 161] 4.7

* * *

Tested on: Mycobacterium tuberculosis strain EH4.0 expressing green-fluorescent protein (GFP)
Experiment: microbe, parasite or virus in culture
Type: cell-based
Conditions: 168 h, read-out: pIC50 (converted)
quantity-name: IC50 (nM)
Please give a number only; it is taken to be in nM.

# example entries with known answers
[[record]]
compound_structure_string = "CCc1nc2ncc(Cl)cn2c1C(=O)NCc1ccc(N2CCN(S(=O)(=O)C(F)(F)F)C(CCO)=N2)cc1"
assayed_target = "Mycobacterium tuberculosis strain EH4.0 expressing green-fluorescent protein (GFP)"
observed_result = 50.1

[[record]]
compound_structure_string = "CCc1nc2nc3c(cn2c1C(=O)NCc1ccc(N2CCN(S(=O)(=O)C(F)(F)F)C(C)=N2)cc1)CCOC3"
assayed_target = "Mycobacterium tuberculosis strain EH4.0 expressing green-fluorescent protein (GFP)"
observed_result = 14.1

[[record]]
compound_structure_string = "O=C(NCc1ccc(N2CCN(S(=O)(=O)C(F)(F)F)C=N2)c(F)c1)c1c(C(F)(F)F)nc2c(F)cccn12"
assayed_target = "Mycobacterium tuberculosis strain EH4.0 expressing green-fluorescent protein (GFP)"
observed_result = 3.63

[[record]]
compound_structure_string = "O=C(NCc1ccc(N2CCN(S(=O)(=O)C(F)(F)F)C=N2)c(F)c1)c1c(C(F)F)nc2n1CCCC2"
assayed_target = "Mycobacterium tuberculosis strain EH4.0 expressing green-fluorescent protein (GFP)"
observed_result = 3.8

[[record]]
compound_structure_string = "CCc1nc2ncc(OC)cn2c1C(=O)NCc1ccc(N2CCN(S(=O)(=O)C(F)(F)F)C(OC)=N2)c(F)c1"
assayed_target = "Mycobacterium tuberculosis strain EH4.0 expressing green-fluorescent protein (GFP)"
observed_result = 1.07

[[record]]
compound_structure_string = "CCc1nc2cc3c(cn2c1C(=O)NCc1ccc(N2CCN(S(=O)(=O)C(F)(F)F)C=N2)c(F)c1)OCC3"
assayed_target = "Mycobacterium tuberculosis strain EH4.0 expressing green-fluorescent protein (GFP)"
observed_result = 8.71


// lookup IC50 for COC1=NN(c2ccc(CNC(=O)c3c(C(F)F)nc4ccccn34)cc2)CCN1S(=O)(=O)C(F)(F)F 3.55

// lookup IC50 for CCc1nc2sc(C)cn2c1C(=O)NCc1ccc(N2CCN(S(=O)(=O)C(F)(F)F)C=N2)c(F)c1 0.316

// lookup IC50 for CCc1nc2cc(F)c(Cl)cn2c1C(=O)NCc1ccc(N2CCN(S(=O)(=O)C(F)(F)F)C(OC)=N2)c(F)c1 4.9

// lookup IC50 for CCc1nc2ccc(Cl)cn2c1C(=O)NCc1ccc(N2CCN(S(=O)(=O)C(F)(F)F)C=N2)cc1 7.08

// lookup IC50 for COC1=NN(c2ccc(CNC(=O)c3c(C)nn4ccc(OC)cc34)cc2)CCN1S(=O)(=O)C(F)(F)F 10

// lookup IC50 for CCc1nc2ccc(Cl)cn2c1C(=O)NCc1cnc(N2CCN(S(=O)(=O)C(F)(F)F)C=N2)c(C)c1 69.2

// lookup IC50 for CCc1nc2ncc(F)cn2c1C(=O)NCc1ccc(N2CCN(S(=O)(=O)C(F)(F)F)C(OC)=N2)c(F)c1 12.9

// lookup IC50 for CCc1nc2n(c1C(=O)NCc1ccc(N3CCN(S(=O)(=O)C(F)(F)F)C=N3)cc1)CCCC2 31.6

* * *

In this section we review reported pIC50 values for a set of compounds.
Target: UniProt Q12809
Sequence (Q12809 whole entry): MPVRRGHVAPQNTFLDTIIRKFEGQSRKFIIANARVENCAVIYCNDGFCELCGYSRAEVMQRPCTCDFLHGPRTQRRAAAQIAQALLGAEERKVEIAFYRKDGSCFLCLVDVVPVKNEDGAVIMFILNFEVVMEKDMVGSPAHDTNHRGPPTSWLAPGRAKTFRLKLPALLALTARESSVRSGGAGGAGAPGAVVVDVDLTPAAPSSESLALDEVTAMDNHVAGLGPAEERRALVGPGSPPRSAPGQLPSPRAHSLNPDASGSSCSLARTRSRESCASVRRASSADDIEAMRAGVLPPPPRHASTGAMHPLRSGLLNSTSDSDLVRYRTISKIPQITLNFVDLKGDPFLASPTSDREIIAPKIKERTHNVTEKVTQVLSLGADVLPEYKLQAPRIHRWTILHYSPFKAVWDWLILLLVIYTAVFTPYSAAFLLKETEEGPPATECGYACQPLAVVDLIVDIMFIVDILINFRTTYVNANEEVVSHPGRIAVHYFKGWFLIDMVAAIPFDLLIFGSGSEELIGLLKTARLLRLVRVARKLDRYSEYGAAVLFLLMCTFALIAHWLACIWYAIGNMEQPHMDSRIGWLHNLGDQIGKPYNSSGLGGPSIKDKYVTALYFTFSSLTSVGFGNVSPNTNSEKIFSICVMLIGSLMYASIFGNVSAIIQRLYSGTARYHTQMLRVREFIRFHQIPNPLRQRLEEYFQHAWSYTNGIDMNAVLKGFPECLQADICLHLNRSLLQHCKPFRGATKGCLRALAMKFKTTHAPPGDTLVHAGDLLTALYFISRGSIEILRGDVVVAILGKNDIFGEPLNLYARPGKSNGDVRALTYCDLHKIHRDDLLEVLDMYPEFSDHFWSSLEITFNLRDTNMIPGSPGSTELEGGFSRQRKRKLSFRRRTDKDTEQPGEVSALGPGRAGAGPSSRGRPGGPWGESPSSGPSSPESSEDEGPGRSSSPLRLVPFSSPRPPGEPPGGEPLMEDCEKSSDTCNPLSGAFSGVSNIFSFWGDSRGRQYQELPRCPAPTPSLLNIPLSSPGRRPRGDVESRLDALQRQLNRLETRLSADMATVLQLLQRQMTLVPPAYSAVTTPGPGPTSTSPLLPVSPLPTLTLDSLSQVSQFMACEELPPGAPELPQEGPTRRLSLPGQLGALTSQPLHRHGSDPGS
Assay: CVS panel, hERGdof
Assay type: binding
Conditions: read-out: CVS hERGdof, IC50
pIC50: −log10 of the molar value.

[[record]]
compound_structure_string = "CCc1nc2ccc(Cl)cn2c1C(=O)NCc1ccc(N2CCN(S(=O)(=O)C(F)(F)F)C=N2)c(F)c1"
assayed_target = "UniProt Q12809"
observed_result = "< 5.00"

[[record]]
compound_structure_string = "CCc1nc2ccc(Cl)cn2c1C(=O)NCc1ccc(N2CCN(S(C)(=O)=O)C=N2)cc1"
assayed_target = "UniProt Q12809"
observed_result = "< 5.00"

[[record]]
compound_structure_string = "CCc1nc2ncc(C)cn2c1C(=O)NCc1ccc(N2CCN(S(=O)(=O)C(F)(F)F)C=N2)c(F)c1"
assayed_target = "UniProt Q12809"
observed_result = 4.80

[[record]]
compound_structure_string = "CCc1nc2ccc(C#N)cn2c1C(=O)NCc1ccc(N2CCN(S(=O)(=O)C(F)(F)F)C(OC)=N2)c(F)c1"
assayed_target = "UniProt Q12809"
observed_result = "< 5.00"

[[record]]
compound_structure_string = "CCc1nc2ccc(Cl)cn2c1C(=O)NCc1ccc(N2CCN(S(=O)(=O)C(F)(F)F)C=N2)cc1F"
assayed_target = "UniProt Q12809"
observed_result = "< 5.00"


Now consider the entry below.
Checklist item: pIC50 tested on UniProt Q12809, entry CCc1nc2ccc(Cl)cn2c1C(=O)NCc1ccc(N2CCN(S(=O)(=O)C(F)(F)F)C(OC)=N2)cc1 , value? < 5.00

* * *

In this section we review reported microsomal CLint values for a set of molecules.
Assay: Microsomal stability CLint (H)
Details: human, microsomes
Please give a number only; it is taken to be in µL/min/mg.

# example entries with known answers
[[record]]
compound_structure_string = "CCc1nc2ccc(Cl)cn2c1C(=O)NCc1ccc(N2CCN(S(=O)(=O)C(F)(F)F)C=N2)c(F)c1"
unit_descriptor = "µL/min/mg"
observed_result = 19

[[record]]
compound_structure_string = "CCc1nc2ncc(Cl)cn2c1C(=O)NCc1ccc(N2CCN(S(=O)(=O)C(F)(F)F)C=N2)cc1"
unit_descriptor = "µL/min/mg"
observed_result = 16.3

[[record]]
compound_structure_string = "CCc1nc2ccc(Cl)cn2c1C(=O)NCc1ccc(N2CCN(S(=O)(=O)C(F)(F)F)C=N2)cc1"
unit_descriptor = "µL/min/mg"
observed_result = 29.6


Now consider the entry below.
// lookup microsomal CLint for CCc1nc2ccc(Cl)cn2c1C(=O)NCc1ccc(N2CCN(S(=O)(=O)C(F)(F)F)C=N2)cc1F 24

* * *

Assay: physchem
Conditions: fassif, thermodynamic from solid
quantity-name: solubility thermodynamic (µg/mL)
Please give a number only; it is taken to be in µg/mL.

// lookup solubility thermodynamic for CCc1nc2ncc(C)cn2c1C(=O)NCc1ccc(N2CCN(S(=O)(=O)C(F)(F)F)C=N2)c(F)c1 [Compound 161] 5

* * *

Tested on: Cyp-450 (cocktail, isoforms not named)
Test: Cocktail Cyp-450 inhibition
Assay type: in vitro ADME
Source text: The compounds of the invention/examples may have advantages associated with in vitro potency, kill kinetics (i.e. bactericidal effect) in vitro, PK properties, food effect, safety/toxicity (including liver toxicity, coagulation, […]), metabolic stability, Ames II negativity, MNT negativity, aqueous based solubility (and ability to formulate) and/or cardiovascular effect e.g. on animals (e.g. anesthetized guinea pig). […]
quantity-name: IC50

// lookup IC50 for CCc1nc2ncc(C)cn2c1C(=O)NCc1ccc(N2CCN(S(=O)(=O)C(F)(F)F)C=N2)c(F)c1 > 20 µM

* * *

In this section we review reported log10 IC50 values for a set of compounds.
Tested on: Mycobacterium tuberculosis strain EH4.0 expressing green-fluorescent protein (GFP)
Assay: microbe, parasite or virus in culture
Format: cell-based
Conditions: 168 h, read-out: pIC50 (converted)
# values: log10(IC50), units nM

[[record]]
compound = "CCc1nc2cc(OC)ccn2c1C(=O)NCc1ccc(N2CCN(S(=O)(=O)C(F)(F)F)C=N2)cc1 [Compound 51]"
observed_result = 1.66

[[record]]
compound = "COC1=NN(c2ccc(CNC(=O)c3c(C(F)F)nc4ccc(Cl)cn34)cc2F)CCN1S(=O)(=O)C(F)(F)F [Compound 206]"
observed_result = 0.39

[[record]]
compound = "CCc1nc2c(N)cc(C)cn2c1C(=O)NCc1ccc(N2CCN(S(=O)(=O)C(F)(F)F)C=N2)c(F)c1 [Compound 212]"
observed_result = 1.41

[[record]]
compound = "CCc1nc2ccc(C#N)cn2c1C(=O)NCc1ccc(N2CCN(S(=O)(=O)C(F)(F)F)C(OC)=N2)c(F)c1 [Compound 73]"
observed_result = 1.71

[[record]]
compound = "CCc1nc2ccc(C)cn2c1C(=O)NCc1ccc(N2CCN(S(=O)(=O)C(F)(F)F)C=N2)c(F)c1 [Compound 164]"
observed_result = -0.61


// lookup log10 IC50 for CCc1nc2nc(C)ccn2c1C(=O)NCc1ccc(N2CCN(S(=O)(=O)C(F)(F)F)C=N2)c(F)c1 [Compound 111] 1.26

// lookup log10 IC50 for CCc1nc2ncc(Cl)cn2c1C(=O)NCc1ccc(N2CCN(C(C)=O)C=N2)cc1 [Compound 24] 1.20

// lookup log10 IC50 for O=C(NCc1cnc(N2CCN(S(=O)(=O)C(F)(F)F)C=N2)c(F)c1)c1c(C(F)(F)F)nc2ccc(Cl)cn12 [Compound 167] 1.94

// lookup log10 IC50 for O=C(NCc1ccc(N2CCN(S(=O)(=O)C(F)(F)F)C=N2)c(F)c1)c1c(C(F)(F)F)nc2cc(F)c(Cl)cn12 [Compound 114] 1.21

// lookup log10 IC50 for CCc1nc2nc(N)c(Cl)cn2c1C(=O)NCc1ccc(N2CCN(S(=O)(=O)C(F)(F)F)C=N2)c(F)c1 [Compound 126] 0.99

// lookup log10 IC50 for O=C(NCc1ccc(N2CCN(S(=O)(=O)C(F)(F)F)C=N2)c(F)c1)c1c(C(F)(F)F)nc2ccccn12 [Compound 152] 0.30

// lookup log10 IC50 for COC1=NN(c2ccc(CNC(=O)c3c(C(F)F)nc4n3CCCC4)cc2F)CCN1S(=O)(=O)C(F)(F)F [Compound 137] 0.79

// lookup log10 IC50 for CCc1nc2ccc(Cl)cn2c1C(=O)NCc1ccc(N2CCN(S(=O)(=O)CCOC)C=N2)cc1 [Compound 19] 1.60
